MEASUREMENT NOTES: T. cruzi intracellular proliferation inhibitors, primary screen, cell-based, beta-gal Tulahuen parasites, NIH3T3 host, luminescence (AID 624255)
MEASUREMENT CONDITIONS: T. cruzi beta-gal in NIH3T3, GalScreen luminescence, 90 h; at 8.34 µM; active compounds read high
The campaign covered roughly 77,000 compounds. About 4,600 (6%) were called active. About 1% were inconclusive and are not listed. This is one part of a sample in which actives are shown more often than they occur.
Reported inhibition is given for each of the following molecules.
OUTCOME MEASURE: inhibition

INSERT INTO results (mol_smiles, outcome_measure, recorded_result) VALUES
  ('C[C@@H]1CN([C@@H](C)CO)C(=O)Cc2cc(NC(=O)C3CCCCC3)ccc2O[C@@H]1CN(C)Cc1ccc(C(=O)Nc2ccccc2N)cc1', 'inhibition', '103% (active)'),
  ('COc1ccc(CN(C)C[C@@H]2OCCCC[C@H](C)Oc3ccc(NC(=O)c4ccccc4)cc3C(=O)N([C@H](C)CO)C[C@H]2C)cc1', 'inhibition', '76.8% (inactive)'),
  ('C[C@@H]1CN([C@H](C)CO)C(=O)Cc2cc(NC(=O)Nc3ccc(C(F)(F)F)cc3)ccc2O[C@H]1CN(C)Cc1ccc(-c2ccccc2)cc1', 'inhibition', '67.4% (inactive)'),
  ('Cc1ccc(S(=O)(=O)N2C[C@@H](O)COC[C@@H]3O[C@@H](CC(=O)N[C@H]4CCN(Cc5ccccc5)C4)CC[C@H]32)cc1', 'inhibition', '-6.53% (inactive)'),
  ('C/C=C/c1ccc([C@@H]2[C@@H](CN(C)C(C)=O)N(C(=O)C3CC3)[C@H]2CO)cc1', 'inhibition', '-20.4% (inactive)'),
  ('CS(=O)(=O)N1CCCCN2[C@H](CO)[C@H](c3ccc(-c4cccc(C#N)c4)cc3)[C@H]2C1', 'inhibition', '74.2% (inactive)'),
  ('O=C(Nc1ccccc1)N1C[C@H]2[C@@H](c3ccccc31)[C@@H](CO)N2Cc1cocn1', 'inhibition', '65% (inactive)'),
  ('COc1ccc(NC(=O)N(C)C[C@H]2OCCCC[C@H](C)Oc3ccc(NC(=O)Nc4ccc(C(F)(F)F)cc4)cc3C(=O)N([C@@H](C)CO)C[C@@H]2C)cc1', 'inhibition', '110% (active)'),
  ('CCCNC(=O)[C@H]1[C@H](CO)[C@H]2Cn3c(ccc(-c4cccc(F)c4)c3=O)[C@@H]1N2C(=O)CC', 'inhibition', '1.74% (inactive)'),
  ('COc1cccc(-c2ccc3c(c2)[C@@H]2[C@@H](CCN2C(=O)CN2CCOCC2)[C@H](CO)N3)c1', 'inhibition', '88.3% (inactive)'),
  ('CC(C)NC(=O)Nc1ccc2c(c1)C(=O)N([C@H](C)CO)C[C@H](C)[C@H](CN(C)C(=O)Nc1ccc(C(F)(F)F)cc1)OCCCC[C@@H](C)O2', 'inhibition', '104% (active)'),
  ('C[C@@H]1CN([C@@H](C)CO)C(=O)c2cc(NC(=O)C3CCCCC3)ccc2O[C@@H](C)CCCCO[C@H]1CN(C)C(=O)CCC(F)(F)F', 'inhibition', '29.9% (inactive)'),
  ('CC(=O)N1[C@H](CO)[C@H]2c3ccccc3N(C(=O)c3ccc(F)cc3)C[C@H]21', 'inhibition', '14.7% (inactive)'),
  ('C[C@H](CO)N1C[C@H](C)[C@H](CN(C)Cc2ccc(-c3ccccc3)cc2)Oc2ccc(NC(=O)Nc3ccc(F)cc3)cc2CC1=O', 'inhibition', '100% (active)'),
  ('CO[C@@H]1CN(C)C(=O)c2ccc(NC(=O)c3ccc(F)cc3)cc2OC[C@H](C)NC[C@@H]1C', 'inhibition', '-9.72% (inactive)');
